Exercise: state measured pEC50 for each of the molecules provided.
Test System: BLM-RAD54 interaction (BLM F2 and N-RAD54 F1) (Homo sapiens, UniProt Q92698)
Construct: expressed in transfected cells; host or cells: HEK293T
Sequence (Q92698 1-212): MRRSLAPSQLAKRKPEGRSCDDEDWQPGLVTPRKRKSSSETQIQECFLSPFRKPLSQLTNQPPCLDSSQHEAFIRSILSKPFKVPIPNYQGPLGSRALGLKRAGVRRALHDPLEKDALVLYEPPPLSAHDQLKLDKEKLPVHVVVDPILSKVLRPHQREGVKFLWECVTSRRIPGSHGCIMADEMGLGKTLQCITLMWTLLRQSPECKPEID
Experiment Description: Renilla luciferase-based protein complementation assay (PCA)
Type: cell-based
Condition: disruption of BLM F2 / N-RAD54 F1 interaction, HEK293T cells, 1 nM to 100 μM; read-out: EC50
Give bare numbers, as −log10 of the molar value.

These recorded examples may help you get a feel for the data.
INSERT INTO measurements (molecule, metric_name, result) VALUES
  ('Nc1nc2nn[nH]c2c(=O)[nH]1', 'pEC50', 7.65),
  ('NC(=O)NC1NC(=O)NC1=O (stereo not shown)', 'pEC50', 7.75),
  ('Oc1c(Cl)cc(Cl)c2cccnc12', 'pEC50', 7.58);

Which pEC50 is reported for this molecule? COc1ccc(CC2c3cc(OC)c(OC)cc3CC[N+]2(C)CCC(=O)OCCCCCOC(=O)CC[N+]2(C)CCc3cc(OC)c(OC)cc3C2Cc2ccc(OC)c(OC)c2)cc1OC (stereo not shown) [C5, Atracurum besylate] 8.27

----------
Test System: BLM-RAD54 interaction (BLM F2 and N-RAD54 F1) (Homo sapiens)
Construct: expressed in transfected cells; host or cells: HEK293T
Experiment Description: Renilla luciferase-based protein complementation assay (PCA)
Format: cell-based
Counter-ions that a name gives are not always drawn.
Metric Name: pEC50
Numbers only, as −log10 of the molar value.

Which pEC50 is reported with BLM-RAD54 interaction (BLM F2 and N-RAD54 F1) (Homo sapiens) for this entry: CC(C)CC1C(=O)N2CCC[C@H]2[C@]2(O)O[C@](NC(=O)[C@@H]3C=C4c5cccc6[nH]c(Br)c(c56)C[C@H]4N(C)C3)(C(C)C)C(=O)N12 (stereo partly shown) [C12, Bromocryptine mesylate] ? 7.38

----------
System: HCT116 WT cells
Experiment Description: MTT assay, chemotherapeutic drug gradient with or without disruptor
Assay type: cell-based
Condition: CDDP gradient alone, MTT, 72 hours; read-out: EC50 (μM), HCT116 WT
Metric Name: EC50 (µM)
Give bare numbers, in µM.

Which EC50 is reported for this molecule? [NH2][Pt]([NH2])([Cl])[Cl] [CDDP, cisplatin] 3.78

----------
Tested on: HCT116 WT cells
Experiment Description: MTT assay, chemotherapeutic drug gradient with or without disruptor
Format: cell-based
Condition: 1-OHP gradient alone, MTT, 72 hours; read-out: EC50 (μM), HCT116 WT + 1-OHP
Metric Name: EC50 (µM)
Numbers only, in µM.

Which EC50 is reported for this molecule? N[C@@H]1CCCC[C@H]1N.O=C([O-])C(=O)[O-].[Pt+2] 4.77
